system_under_test: hTAS2R16 (Homo sapiens, UniProt Q9NYV7, R222H)
assay_summary: calcium flux in transfected HEK-293T cells (with Gα[…]gust44), inhibition of […] salicin response; dose-response and mutant analysis
metric: IC50 (µM)
Your answer is read as µM, so omit the unit and give the number.

What reported IC50 corresponds to CCCN(CCC)S(=O)(=O)c1ccc(C(=O)O)cc1 on hTAS2R16 (Homo sapiens, UniProt Q9NYV7, R222H)? 292

###

system_under_test: hTAS2R16 (Homo sapiens, UniProt Q9NYV7, R222H)
Sequence (Q9NYV7 1-291 R222H): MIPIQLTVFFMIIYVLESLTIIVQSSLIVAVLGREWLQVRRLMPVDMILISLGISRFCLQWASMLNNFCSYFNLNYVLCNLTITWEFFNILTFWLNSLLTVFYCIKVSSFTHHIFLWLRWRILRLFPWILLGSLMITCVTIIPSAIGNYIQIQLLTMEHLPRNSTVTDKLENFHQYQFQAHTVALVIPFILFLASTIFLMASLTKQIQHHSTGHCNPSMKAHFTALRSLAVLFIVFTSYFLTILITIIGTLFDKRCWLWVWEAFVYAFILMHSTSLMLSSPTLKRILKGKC
assay_summary: calcium flux agonist dose-response in transfected HEK-293T cells (with Gα[…]gust44)
metric: EC50

Find the recorded EC50 belonging to OCc1ccccc1O[C@@H]1O[C@H](CO)[C@@H](O)[C@H](O)[C@H]1O [salicin] and report it. ~1200 µM
